Data credit: patent US9975854B2

molecular target: μ-opioid receptor (Homo sapiens (Human), UniProt P35372); assay: μ-opioid receptor [35S]GTPγS functional assay, HEK-293 or CHO cells; format: biochemical; conditions: HEK-293 or CHO cells; relative to DAMGO
Define the label as true when Emax is strictly less than 30% and as false in all remaining cases.

[
  {
    "Molecule": "CN1CC[C@@]2(C)c3cc(O)ccc3C[C@@H]1[C@@H]2N(C)CC1CCN(C(=O)C(C)(C)C)CC1",
    "Assigned category": "false"
  },
  {
    "Molecule": "CN1CC[C@@]2(C)c3cc(C(=O)O)ccc3C[C@@H]1[C@@H]2NCCc1ccc(S(C)(=O)=O)cc1",
    "Assigned category": "true"
  },
  {
    "Molecule": "CN(CC1CCN(S(=O)(=O)C2CCCC2)CC1)C1[C@H]2Cc3ccc(O)cc3C1(C)CCN2C (stereo in doubt)",
    "Assigned category": "true"
  },
  {
    "Molecule": "CN1CC[C@@]2(C)c3cc(O)ccc3C[C@@H]1[C@@H]2N(C)CC1CCN(C(=O)NC(C)(C)C)CC1",
    "Assigned category": "true"
  },
  {
    "Molecule": "CN1CC[C@@]2(C)c3cc(O)ccc3C[C@@H]1[C@@H]2N(C)CC(=O)Nc1ccc(C(F)(F)F)cc1",
    "Assigned category": "true"
  }
]

A record lists "CN1CC[C@@]2(C)c3cc(O)ccc3C[C@@H]1[C@@H]2N(C)C(=O)CC(=O)Nc1ccc(F)cc1F" . Is its Emax below 30%?
false

Determine if "CN1CC[C@@]2(C)c3cc(O)ccc3C[C@@H]1[C@H]2NCCCCNC(=O)OC(C)(C)C" shows Emax strictly lower than 30%.
true

Criterion: Emax strictly below 30%. Is it met by "CCN(C(=O)Nc1ccc(C#N)cc1)[C@H]1[C@H]2Cc3ccc(O)cc3[C@]1(C)CCN2C" ?
false

Confirm or reject: Emax of "CC(C)S(=O)(=O)N1CCC(CN(C)[C@H]2[C@H]3Cc4ccc(O)cc4[C@]2(C)CCN3C)CC1" lies strictly below 30%
false

Answer whether the molecule "COc1ccc2c(c1)[C@]1(C)CCN(C)[C@H](C2)[C@@H]1N(C)C(=O)Nc1nc2ccccc2[nH]1" has Emax strictly less than 30%
false
